# Experiment: Cytotoxicity against human MT4 cells
# Assay type: cell-based
# Test context: read-out: CCIC50
Measured parameter: CC50

stdin: # input compound: Cc1nc(COc2ccc(C[C@H](NC(=O)O[C@H]3CO[C@H]4OCC[C@H]43)[C@H](O)CN(CC(C)C)S(=O)(=O)c3ccc4c(c3)OCO4)cc2)cs1 [BRECANAVIR] ; wanted: its CC50
stdout: > 25 µM

###

# Tested on: Human immunodeficiency virus 1
# Experiment: Antiviral activity against HIV1 NL4-3
# Type: functional, organism-based
# Test context: Human immunodeficiency virus 1, NL4-3
Measured parameter: log10(EC50) (log10 of the value in nM)
Quick note: numbers are log10 of EC50, with nM as the unit.

Would you please look over these solved cases?
Smiles str: Cc1cccc(C)c1OCC(=O)N[C@@H](Cc1ccccc1)[C@@H](O)C[C@H](Cc1ccccc1)NC(=O)[C@H](C(C)C)N1CCCNC1=O
Measured parameter: log10(EC50)
Observed result: 0.64
--
Smiles str: COC(=O)N[C@H](C(=O)N[C@@H](Cc1ccccc1)[C@@H](O)CN(Cc1ccc(-c2ccccn2)cc1)NC(=O)[C@@H](NC(=O)OC)C(C)(C)C)C(C)(C)C
Measured parameter: log10(EC50)
Observed result: 0.23
--
Smiles str: CC(C)(C)NC(=O)[C@@H]1CN(Cc2cccnc2)CCN1C[C@@H](O)C[C@@H](Cc1ccccc1)C(=O)N[C@H]1c2ccccc2C[C@H]1O.O
Measured parameter: log10(EC50)
Observed result: 0.99
--
Smiles str: CCC[C@@]1(CCc2ccccc2)CC(O)=C([C@H](CC)c2cccc(NS(=O)(=O)c3ccc(C(F)(F)F)cn3)c2)C(=O)O1
Measured parameter: log10(EC50)
Observed result: 1.88
--
Smiles str: CC(C)CN(C[C@@H](O)[C@H](Cc1ccccc1)NC(=O)O[C@H]1CCOC1)S(=O)(=O)c1ccc(N)cc1
Measured parameter: log10(EC50)
Observed result: 1.18

stdin: # input molecule: CC(C)CN(C[C@@H](O)[C@H](Cc1ccccc1)NC(=O)O[C@H]1CO[C@H]2OCC[C@H]21)S(=O)(=O)c1ccc(N)cc1 ; wanted: its log10(EC50)
stdout: -0.11

stdin: # input molecule: Cc1nc(COc2ccc(C[C@H](NC(=O)O[C@H]3CO[C@H]4OCC[C@H]43)[C@H](O)CN(CC(C)C)S(=O)(=O)c3ccc4c(c3)OCO4)cc2)cs1 ; wanted: its log10(EC50)
stdout: -0.74
